Attribution: paper PMC10117725

- Tested on: F-actin levels in HaCaT cells
- METHOD: F-actin measurement (ActinGreen 488 fluorescence) in HaCaT cells
- Type: cell-based, human
- CONDITION_DESCRIPTION: 35 µg/ml peptide (L15 20 µM, L13 30 µM), geldanamycin 5 µM; 1.5 h; ActinGreen 488 fluorescence relative to control
- Description: About 5 × 10^4 cells were seeded in black flat bottom 96 well cell culture microplate (Greiner, Germany) and incubated overnight. The cells were then incubated with peptides or geldanamycin for 1.5 h. After incubation, the cells were washed, permeabilised with 0.1% (v/v) Triton X-100 and stained with ActinGreen™ 488 ReadyProbes® (Thermo Fischer, Germany) for 30 min. After the staining, the cells were washed and measure for its fluorescence at Excitation/Emission: 495/518 nm (Luqman et al. [2020]).
Where no end group is shown, it is not given here.
Criterion: Relative F-actin level in HaCaT strictly less than 1. Met: Y. Not met: N.

Completed entries (count: 5):
SUBSTANCE: NKPGEL [L8, Lpl1-derived peptide]
GROUP: Y
--
SUBSTANCE: EMKNNKIIL [L17, Lpl1-derived peptide]
GROUP: N
--
SUBSTANCE: GHYFVTTFY [L13]
GROUP: Y
--
SUBSTANCE: GKGNETKED [L1, Lpl1-derived peptide]
GROUP: Y
--
SUBSTANCE: TAKGHYFVTTFYRNG [L15]
GROUP: Y

Moving on to the next substance.
Req: Is Relative F-actin level in HaCaT of DEIVKELRSRYNISTEKSPILKMHIDGDLKGSSVGYRKLEI DFSKRENSKLSVIEFLSYKPAKK [L26, Lpl1-derived peptide that increased S. aureus internalization] strictly below 1?
Resp: N
